Data origin: patent US20060084628A1

assay: Population PK analysis of plasma and urine data, healthy subjects, 1×20 mg tablet PO (ACH443-011); conditions: human, in vivo, early distribution (λ1) half-life
quantity: half-life (min)
Could you give me the number in min? Just the number is fine.

Data request: half-life for Nc1nc(=O)n([C@H]2C=C[C@@H](CO)O2)cc1F ?
Data returned: 35.4

====

experiment: Population PK analysis of plasma and urine data, healthy subjects, 1×20 mg tablet PO (ACH443-011); conditions: human, in vivo, elimination (λz) half-life
quantity: half-life (h)
// units = h; emit number, no label

Data request: Fill blank: measured half-life of the compound Nc1nc(=O)n([C@H]2C=C[C@@H](CO)O2)cc1F is ____.
Data returned: 175

====

assay: Population PK analysis of plasma and urine data, healthy subjects, 1×20 mg tablet PO (ACH443-011); conditions: human, in vivo, distribution (λ2) half-life
quantity: half-life (h)
Record the value in h, omitting the unit from your answer.

Data request: So what does the record say about half-life for Nc1nc(=O)n([C@H]2C=C[C@@H](CO)O2)cc1F ?
Data returned: 30
